System: UGT enzymes of human liver microsomes
protocol-details: Inhibition of raloxifene glucuronidation (G1, G2) in human liver microsomes
Format: biochemical
experimental-context: G2; inhibitor 50 μM; raloxifene 50 μM, human liver microsomes 250 μg/ml, 15 min
Reported % of control metabolism (SD, n = 3), raloxifene glucuronide G2 values for a set of compounds

// worked examples, % of control metabolism (SD, n = 3), raloxifene glucuronide G2 included
{"compound": "CCCCCCCCOC(=O)c1cc(O)c(O)c(O)c1 [Octyl gallate]", "obs-value": "46 (3) %"}
{"compound": "O=C(O[C@@H]1Cc2c(O)cc(O)cc2O[C@H]1c1cc(O)c(O)c(O)c1)c1cc(O)c(O)c(O)c1 [Gallocatechin gallate]", "obs-value": "47 (2) %"}
{"compound": "CC/C(=C(/CC)c1ccc(O)cc1)c1ccc(O)cc1 [Diethylstilbestrol, reference compound]", "obs-value": "58 (2) %"}

Problem: Record O=C(O[C@@H]1Cc2c(O)cc(O)cc2O[C@@H]1c1cc(O)c(O)c(O)c1)c1cc(O)c(O)c(O)c1 [Epigallocatechin gallate] : what is its % of control metabolism (SD, n = 3), raloxifene glucuronide G2 with UGT enzymes of human liver microsomes?
Solution: 50 (3) %

Problem: Given the entry O=C(O)c1cc(-c2ccc(F)cc2F)ccc1O [Diflunisal, reference compound] , what % of control metabolism (SD, n = 3), raloxifene glucuronide G2 was observed with UGT enzymes of human liver microsomes?
Solution: 45 (2) %

Problem: Give the reported % of control metabolism (SD, n = 3), raloxifene glucuronide G2 for O=c1c(O)c(-c2ccc(O)c(O)c2)oc2cc(O)cc(O)c12 (system: UGT enzymes of human liver microsomes).
Solution: 15 (1) %

Problem: Find % of control metabolism (SD, n = 3), raloxifene glucuronide G2 (UGT enzymes of human liver microsomes) for the entry O=C(O[C@@H]1Cc2c(O)cc(O)cc2O[C@@H]1c1ccc(O)c(O)c1)c1cc(O)c(O)c(O)c1 [Epicatechin gallate]
Solution: 43 (4) %

Problem: Recorded % of control metabolism (SD, n = 3), raloxifene glucuronide G2 for O=C(O)Cc1ccccc1Nc1c(Cl)cccc1Cl [Diclofenac, reference compound] with UGT enzymes of human liver microsomes, please?
Solution: 67 (1) %

###

Tested on: UGT enzymes of human liver microsomes
protocol-details: Inhibition of raloxifene glucuronidation (G1, G2) in human liver microsomes
Format: biochemical
experimental-context: raloxifene 50 μM; inhibitor 25 μM
quantity-measured: % of control metabolism, raloxifene G2

{"compound": "O=C(O)c1cc(-c2ccc(F)cc2F)ccc1O [Diflunisal, reference compound]", "quantity-measured": "% of control metabolism, raloxifene G2", "obs-value": "66 (1) %"}

Shift focus to the following entry.
Problem: For the compound C#C[C@]1(O)CC[C@H]2[C@@H]3CCc4cc(O)ccc4[C@H]3CC[C@@]21C [17-α-Ethinylestradiol, 17-α-ethinylestradiol, reference compound] , what % of control metabolism, raloxifene G2 is on record?
Solution: 80 (3) %

###

system-name: UGT1A3 (Homo sapiens)
Sequence (P35503 29-534): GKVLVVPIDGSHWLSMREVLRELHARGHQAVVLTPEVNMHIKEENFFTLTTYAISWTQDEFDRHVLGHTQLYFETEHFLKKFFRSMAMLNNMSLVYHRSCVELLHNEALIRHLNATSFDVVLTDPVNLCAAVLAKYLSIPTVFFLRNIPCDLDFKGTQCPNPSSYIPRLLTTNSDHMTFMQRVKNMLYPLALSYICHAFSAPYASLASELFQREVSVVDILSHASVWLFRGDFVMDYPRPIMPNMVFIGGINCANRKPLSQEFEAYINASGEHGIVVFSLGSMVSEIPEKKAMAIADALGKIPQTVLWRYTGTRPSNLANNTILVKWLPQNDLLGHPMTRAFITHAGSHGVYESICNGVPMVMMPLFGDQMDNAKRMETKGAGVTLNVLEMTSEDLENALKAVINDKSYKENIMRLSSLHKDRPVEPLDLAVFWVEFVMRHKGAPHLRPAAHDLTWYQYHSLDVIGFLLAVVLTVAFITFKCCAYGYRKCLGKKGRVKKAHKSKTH
protocol-details: Inhibition of raloxifene glucuronidation by recombinant UGT1A3 Supersomes
experimental-context: human, Supersomes with recombinant human UGT1A3, pH 7.5, probe raloxifene 50 μM, formation of glucuronide G2, % of control metabolism, raloxifene G2, UGT1A3; inhibitor 25 μM
quantity-measured: activity at 15 min, 25 µM (%)
Number only, in %; omit the unit.

Consider the reported activity at 15 min, 25 µM for these compounds:
{"compound": "CC/C(=C(/CC)c1ccc(O)cc1)c1ccc(O)cc1 [Diethylstilbestrol, reference compound]", "activity at 15 min, 25 µM [%]": 48}
{"compound": "O=c1c(O)c(-c2ccc(O)c(O)c2)oc2cc(O)cc(O)c12", "activity at 15 min, 25 µM [%]": 49}
{"compound": "CCCCCCCCOC(=O)c1cc(O)c(O)c(O)c1 [Octyl gallate]", "activity at 15 min, 25 µM [%]": 31}
{"compound": "O=C(OC[C@H]1O[C@@H](OC(=O)c2cc(O)c(O)c(OC(=O)c3cc(O)c(O)c(O)c3)c2)[C@H](OC(=O)c2cc(O)c(O)c(OC(=O)c3cc(O)c(O)c(O)c3)c2)[C@@H](OC(=O)c2cc(O)c(O)c(OC(=O)c3cc(O)c(O)c(O)c3)c2)[C@@H]1OC(=O)c1cc(O)c(O)c(OC(=O)c2cc(O)c(O)c(O)c2)c1)c1cc(O)c(O)c(OC(=O)c2cc(O)c(O)c(O)c2)c1", "activity at 15 min, 25 µM [%]": 38}

Problem: Requested field: activity at 15 min, 25 µM. Item: O=C(O[C@@H]1Cc2c(O)cc(O)cc2O[C@H]1c1cc(O)c(O)c(O)c1)c1cc(O)c(O)c(O)c1 [Gallocatechin gallate]
Solution: 70
